# System: L. donovani HU3 strain in mouse peritoneal macrophages
# TEST NAME: Assay for proliferation of Leishmania parasites in infected mouse peritoneal macrophages (SybrGreen staining, high-content imaging, 5 days)
# Format: cell-based, Leishmania donovani
# REPORTED CONDITIONS: Leishmania donovani, Peritoneal macrophage, L. donovani in mouse peritoneal macrophages, inhibition of proliferation; read-out: L. donovani Macrophage EC50
Reported pEC50 is given for each of the following compounds.
The read-out pEC50 is expressed as -log10 of concentration in moles per litre.

For orientation, consider the following solved cases.
>  <COMPOUND>
CN(C)C(=O)Nc1ccc(F)c(-c2cn3cc(F)cnc3n2)c1

>  <OBSERVED VALUE>
4.93

$$$$
>  <COMPOUND>
O=C(Nc1ccc(F)c(-c2cn3cc(-c4ccccc4)cnc3n2)c1)N1CCC1

>  <OBSERVED VALUE>
7.82

$$$$
>  <COMPOUND>
CC(C)NC(=O)Nc1ccc(Cl)c(-c2cn3cc(NC(=O)OC(C)C)cnc3n2)c1

>  <OBSERVED VALUE>
4.97

$$$$

The reported value for CC(C)OC(=O)Nc1cnc2nc(-c3cc(NC(=O)c4cnc(Br)s4)ccc3F)cn2c1 in terms of pEC50 is 4.62

The reported value for Cc1nc(C)c(C(=O)Nc2ccc(F)c(-c3cn4cc(NC(=O)[C@@H]5CCCO5)cnc4n3)c2)o1 in terms of pEC50 is 6.18

The reported value for Cc1nc(C)c(C(=O)Nc2ccc(F)c(-c3cn4cc(NC(=O)C5COCCO5)cnc4n3)c2)o1 (centres unmarked) in terms of pEC50 is 6.30

The reported value for Cc1ccc(C(=O)Nc2ccc(F)c(-c3cn4cc(NC(=O)OC(C)C)cnc4n3)c2)s1 in terms of pEC50 is 4.71
